assay: Biodistribution of 67Ga complexes in mice; type: in vivo, balb/c mice; conditions: 1 min

{"columns": ["molecule", "biodistribution spleen [% ID]"],
 "data": [
  ["CC(C)(C)c1ccc(O)c(NC(=O)CN(CCN(CC(=O)O)CC(=O)Nc2cc(C(C)(C)C)ccc2O)CC(=O)O)c1 [Compound 4]", 0.15],
  ["Cc1cc(C)c(O)c(NC(=O)CN(CCN(CC(=O)O)CC(=O)Nc2cc(C)cc(C)c2O)CC(=O)O)c1 [Compound 6]", 0.22],
  ["O=C(O)CN(CCN(CC(=O)O)CC(=O)Nc1ccccc1O)CC(=O)Nc1ccccc1O [Compound 1]", 0.29],
  ["O=C(O)CN(CCN(CC(=O)O)CC(=O)Nc1ccc(Cl)cc1O)CC(=O)Nc1ccc(Cl)cc1O [Compound 2]", 0.29]
]}

* * *

assay: Biodistribution of 67Ga complexes in mice; format: in vivo, balb/c mice; conditions: 1 min
Reported biodistribution bone values for a set of compounds
observationType: biodistribution bone (% ID)

{"columns": ["compound", "unitString", "measuredResult"],
 "data": [
  ["Cc1cc(C)c(O)c(NC(=O)CN(CCN(CC(=O)O)CC(=O)Nc2cc(C)cc(C)c2O)CC(=O)O)c1 [Compound 6]", "% ID", 4.33],
  ["O=C(O)CN(CCN(CC(=O)O)CC(=O)Nc1ccccc1O)CC(=O)Nc1ccccc1O [Compound 1]", "% ID", 5.07],
  ["CC(C)(C)c1ccc(O)c(NC(=O)CN(CCN(CC(=O)O)CC(=O)Nc2cc(C(C)(C)C)ccc2O)CC(=O)O)c1 [Compound 4]", "% ID", 3.20],
  ["O=C(O)CN(CCN(CC(=O)O)CC(=O)Nc1ccc(Cl)cc1O)CC(=O)Nc1ccc(Cl)cc1O [Compound 2]", "% ID", 6.16]
]}

* * *

assay: Biodistribution of 67Ga complexes in mice; assay type: in vivo, balb/c mice; settings: 3 min
As shown below, each of these compounds has a reported biodistribution kidney value.

{"columns": ["chemicalStructure", "biodistribution kidney"],
 "data": [
  ["O=C(O)CN(CCN(CC(=O)O)CC(=O)Nc1ccc(Cl)cc1O)CC(=O)Nc1ccc(Cl)cc1O", "4.62 % ID"],
  ["CC(C)(C)c1ccc(O)c(NC(=O)CN(CCN(CC(=O)O)CC(=O)Nc2cc(C(C)(C)C)ccc2O)CC(=O)O)c1", "2.12 % ID"],
  ["O=C(O)CN(CCN(CC(=O)O)CC(=O)Nc1ccccc1O)CC(=O)Nc1ccccc1O", "5.26 % ID"],
  ["Cc1cc(C)c(O)c(NC(=O)CN(CCN(CC(=O)O)CC(=O)Nc2cc(C)cc(C)c2O)CC(=O)O)c1", "5.24 % ID"]
]}

* * *

Entries and their biodistribution heart
experiment: Biodistribution of 99mTc complexes in mice; format: in vivo, Balb/c mice; settings: 10 min

{"columns": ["chemicalStructure", "biodistribution heart (% Injected dose)"],
 "data": [
  ["O=C(O)CN(CCN(CC(=O)O)CC(=O)Nc1ccc(Cl)cc1O)CC(=O)Nc1ccc(Cl)cc1O", 0.15],
  ["Cc1cc(C)c(O)c(NC(=O)CN(CCN(CC(=O)O)CC(=O)Nc2cc(C)cc(C)c2O)CC(=O)O)c1", 0.08],
  ["CC(C)(C)c1ccc(O)c(NC(=O)CN(CCN(CC(=O)O)CC(=O)Nc2cc(C(C)(C)C)ccc2O)CC(=O)O)c1", 0.13],
  ["O=C(O)CN(CCN(CC(=O)O)CC(=O)Nc1ccccc1O)CC(=O)Nc1ccccc1O", 0.12]
]}

* * *

experiment: Serum stability of Copper-67 complexes; assay type: in vitro ADME; settings: serum; Cu-67, initial 4 hours; read-out: loss in serum

{"columns": ["chemicalStructure", "unitString", "degraded at 4 h"],
 "data": [
  ["O=C(O)CN(CCN(CC(=O)O)CC(=O)Nc1ccccc1O)CC(=O)Nc1ccccc1O", "%", 4]
]}

* * *

Assay: Biodistribution of 99mTc complexes in rats
Assay type: in vivo, Australian Albino Wistar Rats
Details: rat, tail, rats, 30 sec, read-out: biodistribution tail
Experimental: A typical method of radiolabelling of the chelator was achieved by dissolving the chelator in a basic solution of saline. The pH was then adjusted to approx. 6 with HCl. Excess stannous chloride was added to the resultant solution followed by one equivalent volume of sodium ^99m TcO4 (10-50 mCi/ml). Final concentration of the chelator was approx. 1 mg/ml. The efficacy of labelling was determined by ITLC-SG. For each product only one main radiochemical species was observed. […]
tissue uptake at 0.5 min overview

{"columns": ["chemicalStructure", "tissue uptake at 0.5 min, %ID/g"],
 "data": [
  ["O=C(O)CN(CCN(CC(=O)O)CC(=O)Nc1ccc(Cl)cc1O)CC(=O)Nc1ccc(Cl)cc1O", 0.81],
  ["Nc1ccc(O)c(NC(=O)CN(CCN(CC(=O)O)CC(=O)Nc2cc(N)ccc2O)CC(=O)O)c1", 0.22],
  ["O=C(O)CN(CCN(CC(=O)O)CC(=O)Nc1cc([N+](=O)[O-])ccc1O)CC(=O)Nc1cc([N+](=O)[O-])ccc1O", 0.85],
  ["O=C(O)CN(CCN(CC(=O)O)CC(=O)Nc1ccccc1O)CC(=O)Nc1ccccc1O", 0.68],
  ["CC(C)(C)c1ccc(O)c(NC(=O)CN(CCN(CC(=O)O)CC(=O)Nc2cc(C(C)(C)C)ccc2O)CC(=O)O)c1", 1.03]
]}

* * *

assay: Biodistribution of compound No. 6 in mice (Table 6); type: in vivo, Balb/c mice; conditions: mouse, stomach, 5 min, read-out: biodistribution stomach

{"columns": ["chemicalStructure", "tissue uptake at 5 min [%ID/g]"],
 "data": [
  ["Cc1cc(C)c(O)c(NC(=O)CN(CCN(CC(=O)O)CC(=O)Nc2cc(C)cc(C)c2O)CC(=O)O)c1", 6.85]
]}

* * *

assay: Biodistribution of 99mTc complexes in mice; format: in vivo, Balb/c mice; conditions: 5 min
observationType: biodistribution urine (% Injected dose)

{"columns": ["chemicalStructure", "observationType", "measuredResult"],
 "data": [
  ["Nc1ccc(O)c(NC(=O)CN(CCN(CC(=O)O)CC(=O)Nc2cc(N)ccc2O)CC(=O)O)c1", "biodistribution urine", 6.52],
  ["CC(C)(C)c1ccc(O)c(NC(=O)CN(CCN(CC(=O)O)CC(=O)Nc2cc(C(C)(C)C)ccc2O)CC(=O)O)c1", "biodistribution urine", 1.55],
  ["O=C(O)CN(CCN(CC(=O)O)CC(=O)Nc1ccc(Cl)cc1O)CC(=O)Nc1ccc(Cl)cc1O", "biodistribution urine", 1.06],
  ["Cc1cc(C)c(O)c(NC(=O)CN(CCN(CC(=O)O)CC(=O)Nc2cc(C)cc(C)c2O)CC(=O)O)c1", "biodistribution urine", 0.59],
  ["O=C(O)CN(CCN(CC(=O)O)CC(=O)Nc1ccccc1O)CC(=O)Nc1ccccc1O", "biodistribution urine", 4.51]
]}

* * *

assay: Biodistribution of 67Ga complexes in mice; format: in vivo, balb/c mice; conditions: 5 min

{"columns": ["chemicalStructure", "biodistribution skin / % ID"],
 "data": [
  ["O=C(O)CN(CCN(CC(=O)O)CC(=O)Nc1ccc(Cl)cc1O)CC(=O)Nc1ccc(Cl)cc1O", 8.04],
  ["Cc1cc(C)c(O)c(NC(=O)CN(CCN(CC(=O)O)CC(=O)Nc2cc(C)cc(C)c2O)CC(=O)O)c1", 10.62],
  ["O=C(O)CN(CCN(CC(=O)O)CC(=O)Nc1ccccc1O)CC(=O)Nc1ccccc1O", 13.02],
  ["CC(C)(C)c1ccc(O)c(NC(=O)CN(CCN(CC(=O)O)CC(=O)Nc2cc(C(C)(C)C)ccc2O)CC(=O)O)c1", 8.22]
]}

* * *

test: Biodistribution of 99mTc complexes in mice; assay type: in vivo, Balb/c mice; conditions: 10 min
This listing pairs compounds with measured biodistribution lungs.

{"columns": ["compound", "biodistribution lungs"],
 "data": [
  ["CC(C)(C)c1ccc(O)c(NC(=O)CN(CCN(CC(=O)O)CC(=O)Nc2cc(C(C)(C)C)ccc2O)CC(=O)O)c1 [Compound 4]", "0.52 % Injected dose"],
  ["Cc1cc(C)c(O)c(NC(=O)CN(CCN(CC(=O)O)CC(=O)Nc2cc(C)cc(C)c2O)CC(=O)O)c1 [Compound 6]", "0.45 % Injected dose"],
  ["O=C(O)CN(CCN(CC(=O)O)CC(=O)Nc1ccccc1O)CC(=O)Nc1ccccc1O [Compound 1]", "0.48 % Injected dose"],
  ["O=C(O)CN(CCN(CC(=O)O)CC(=O)Nc1ccc(Cl)cc1O)CC(=O)Nc1ccc(Cl)cc1O [Compound 2]", "0.53 % Injected dose"]
]}

* * *

assay: Biodistribution of 67Ga complexes in mice; format: in vivo, balb/c mice; settings: 5 min
observationType: biodistribution spleen

{"columns": ["compound", "observationType", "measuredResult"],
 "data": [
  ["O=C(O)CN(CCN(CC(=O)O)CC(=O)Nc1ccccc1O)CC(=O)Nc1ccccc1O [Compound 1]", "biodistribution spleen", "0.1 % ID"],
  ["CC(C)(C)c1ccc(O)c(NC(=O)CN(CCN(CC(=O)O)CC(=O)Nc2cc(C(C)(C)C)ccc2O)CC(=O)O)c1 [Compound 4]", "biodistribution spleen", "0.03 % ID"],
  ["O=C(O)CN(CCN(CC(=O)O)CC(=O)Nc1ccc(Cl)cc1O)CC(=O)Nc1ccc(Cl)cc1O [Compound 2]", "biodistribution spleen", "0.07 % ID"],
  ["Cc1cc(C)c(O)c(NC(=O)CN(CCN(CC(=O)O)CC(=O)Nc2cc(C)cc(C)c2O)CC(=O)O)c1 [Compound 6]", "biodistribution spleen", "0.04 % ID"]
]}
